- TESTED TARGET: N-type calcium channel (Homo sapiens, UniProt Q00975)
- Construct: expressed in transfected cells
- Sequence (Q00975 whole entry): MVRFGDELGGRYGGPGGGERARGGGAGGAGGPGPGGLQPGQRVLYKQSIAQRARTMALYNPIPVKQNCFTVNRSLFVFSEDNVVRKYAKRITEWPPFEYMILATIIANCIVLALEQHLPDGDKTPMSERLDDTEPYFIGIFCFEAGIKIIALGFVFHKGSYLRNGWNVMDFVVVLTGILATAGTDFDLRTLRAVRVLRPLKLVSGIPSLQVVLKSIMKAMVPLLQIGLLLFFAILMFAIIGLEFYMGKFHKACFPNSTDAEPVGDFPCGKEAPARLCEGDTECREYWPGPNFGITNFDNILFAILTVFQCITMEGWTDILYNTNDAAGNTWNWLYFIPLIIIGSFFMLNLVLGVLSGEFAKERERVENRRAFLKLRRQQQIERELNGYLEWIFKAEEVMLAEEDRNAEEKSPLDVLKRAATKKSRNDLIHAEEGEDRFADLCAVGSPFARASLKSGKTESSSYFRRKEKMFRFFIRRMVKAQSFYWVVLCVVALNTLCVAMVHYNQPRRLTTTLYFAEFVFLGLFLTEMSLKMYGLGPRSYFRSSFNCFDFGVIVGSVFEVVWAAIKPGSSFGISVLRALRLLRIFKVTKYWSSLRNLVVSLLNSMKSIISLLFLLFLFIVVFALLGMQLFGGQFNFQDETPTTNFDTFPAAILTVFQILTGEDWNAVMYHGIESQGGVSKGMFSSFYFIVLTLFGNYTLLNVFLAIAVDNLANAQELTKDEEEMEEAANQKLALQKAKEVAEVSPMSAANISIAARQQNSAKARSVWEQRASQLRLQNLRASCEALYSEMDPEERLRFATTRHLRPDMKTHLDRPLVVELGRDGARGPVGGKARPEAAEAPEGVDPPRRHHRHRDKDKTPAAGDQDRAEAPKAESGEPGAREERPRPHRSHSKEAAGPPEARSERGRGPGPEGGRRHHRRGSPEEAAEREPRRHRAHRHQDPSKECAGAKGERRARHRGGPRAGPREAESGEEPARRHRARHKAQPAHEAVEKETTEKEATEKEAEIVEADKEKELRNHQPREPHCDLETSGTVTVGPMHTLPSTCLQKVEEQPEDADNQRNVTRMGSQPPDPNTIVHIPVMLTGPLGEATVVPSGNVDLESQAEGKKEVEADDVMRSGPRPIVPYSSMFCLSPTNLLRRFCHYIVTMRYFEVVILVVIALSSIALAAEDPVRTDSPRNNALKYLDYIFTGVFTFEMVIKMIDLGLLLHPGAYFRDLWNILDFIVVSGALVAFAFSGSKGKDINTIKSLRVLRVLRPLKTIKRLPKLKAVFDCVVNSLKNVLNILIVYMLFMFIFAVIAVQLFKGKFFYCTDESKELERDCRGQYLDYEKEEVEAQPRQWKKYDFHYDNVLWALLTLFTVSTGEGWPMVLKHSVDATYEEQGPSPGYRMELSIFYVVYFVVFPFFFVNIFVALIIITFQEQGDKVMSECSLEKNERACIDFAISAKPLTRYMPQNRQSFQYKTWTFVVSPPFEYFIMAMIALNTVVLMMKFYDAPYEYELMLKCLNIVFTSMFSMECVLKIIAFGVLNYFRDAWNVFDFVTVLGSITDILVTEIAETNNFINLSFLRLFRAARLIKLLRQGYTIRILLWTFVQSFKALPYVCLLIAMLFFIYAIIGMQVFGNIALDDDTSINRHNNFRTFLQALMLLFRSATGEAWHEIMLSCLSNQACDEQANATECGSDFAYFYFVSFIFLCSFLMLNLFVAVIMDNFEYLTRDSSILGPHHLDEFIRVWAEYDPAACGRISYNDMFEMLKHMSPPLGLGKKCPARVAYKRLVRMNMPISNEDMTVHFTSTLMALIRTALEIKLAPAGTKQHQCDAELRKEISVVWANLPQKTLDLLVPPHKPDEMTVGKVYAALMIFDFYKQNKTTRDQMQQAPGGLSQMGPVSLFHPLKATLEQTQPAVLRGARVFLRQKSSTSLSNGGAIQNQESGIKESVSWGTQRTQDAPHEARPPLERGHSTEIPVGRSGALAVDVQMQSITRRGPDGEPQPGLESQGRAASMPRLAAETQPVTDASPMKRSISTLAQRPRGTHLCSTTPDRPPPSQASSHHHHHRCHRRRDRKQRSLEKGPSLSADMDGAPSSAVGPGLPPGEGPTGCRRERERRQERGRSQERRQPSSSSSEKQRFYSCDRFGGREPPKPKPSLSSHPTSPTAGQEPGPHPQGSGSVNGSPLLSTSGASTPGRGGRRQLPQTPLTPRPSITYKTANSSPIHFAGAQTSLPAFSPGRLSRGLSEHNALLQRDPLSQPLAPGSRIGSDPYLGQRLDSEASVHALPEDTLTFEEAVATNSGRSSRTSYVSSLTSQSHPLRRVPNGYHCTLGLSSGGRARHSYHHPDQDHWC
- Sequence (P54284 whole entry partner): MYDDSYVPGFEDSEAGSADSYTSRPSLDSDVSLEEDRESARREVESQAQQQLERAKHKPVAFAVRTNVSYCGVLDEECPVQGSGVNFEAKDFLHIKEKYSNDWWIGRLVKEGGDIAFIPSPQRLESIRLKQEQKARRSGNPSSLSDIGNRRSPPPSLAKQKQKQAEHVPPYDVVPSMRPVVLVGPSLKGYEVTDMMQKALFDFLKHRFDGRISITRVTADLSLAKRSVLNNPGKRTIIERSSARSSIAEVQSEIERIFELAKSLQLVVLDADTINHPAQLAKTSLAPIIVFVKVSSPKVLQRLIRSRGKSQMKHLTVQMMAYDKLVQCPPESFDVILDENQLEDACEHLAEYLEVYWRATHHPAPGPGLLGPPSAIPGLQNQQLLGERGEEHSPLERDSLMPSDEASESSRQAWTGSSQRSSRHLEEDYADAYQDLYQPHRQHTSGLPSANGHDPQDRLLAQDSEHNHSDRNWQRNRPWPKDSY
- Sequence (P54289 25-956 partner limits assumed): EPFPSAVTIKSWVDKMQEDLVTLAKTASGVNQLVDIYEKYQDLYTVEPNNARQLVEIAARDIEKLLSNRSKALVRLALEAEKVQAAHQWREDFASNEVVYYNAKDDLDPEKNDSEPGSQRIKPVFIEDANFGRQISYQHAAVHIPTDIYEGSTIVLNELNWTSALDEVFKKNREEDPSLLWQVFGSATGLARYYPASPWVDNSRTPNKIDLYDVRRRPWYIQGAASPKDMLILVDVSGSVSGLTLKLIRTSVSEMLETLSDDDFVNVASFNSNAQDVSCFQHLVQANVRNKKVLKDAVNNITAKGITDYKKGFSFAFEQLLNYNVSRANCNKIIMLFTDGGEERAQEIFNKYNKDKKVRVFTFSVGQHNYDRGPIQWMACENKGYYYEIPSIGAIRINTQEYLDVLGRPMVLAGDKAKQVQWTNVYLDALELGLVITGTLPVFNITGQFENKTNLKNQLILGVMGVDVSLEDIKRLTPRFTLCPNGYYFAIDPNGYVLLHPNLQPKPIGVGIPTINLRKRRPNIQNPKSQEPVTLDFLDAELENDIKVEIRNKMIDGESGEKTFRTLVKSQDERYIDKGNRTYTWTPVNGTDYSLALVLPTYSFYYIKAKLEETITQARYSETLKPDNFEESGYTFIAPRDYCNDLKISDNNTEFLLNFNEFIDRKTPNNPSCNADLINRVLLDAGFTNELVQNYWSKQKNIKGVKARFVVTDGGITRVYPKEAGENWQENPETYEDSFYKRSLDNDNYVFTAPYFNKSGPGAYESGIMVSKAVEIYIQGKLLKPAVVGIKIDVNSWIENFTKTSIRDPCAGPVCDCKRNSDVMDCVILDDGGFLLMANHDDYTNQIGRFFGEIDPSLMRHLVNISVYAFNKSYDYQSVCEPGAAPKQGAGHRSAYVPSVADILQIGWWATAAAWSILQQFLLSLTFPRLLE
- Sequence (P54289 957-1103 partner limits assumed): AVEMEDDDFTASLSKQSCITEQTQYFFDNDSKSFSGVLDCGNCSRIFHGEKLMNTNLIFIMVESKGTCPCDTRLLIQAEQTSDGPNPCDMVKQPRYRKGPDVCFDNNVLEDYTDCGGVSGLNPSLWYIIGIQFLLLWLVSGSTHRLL
- ASSAY INFO: Automated electrophysiology assay (QPatch-HT whole-cell patch clamp)
- Format: cell-based
- ASSAY CONTEXT: 0.1 μM; low frequency (1st pulse of train); read-out: QPatch at Low Frequency % Inhibition
Reported inhibition at 0.1 µM values for the following compounds.
Return type: number; implicit unit %.

Ask | Entry COc1ccccc1-n1nc2c(c1-c1ccc(Cl)cc1)CN(S(=O)(=O)N1CCCCC1)C2 has what inhibition at 0.1 µM?
Reply | 20

Ask | Then this compound: CCOc1ccccc1-n1nc2c(c1-c1ccc(Cl)cc1)CN(S(=O)(=O)C1CCCCC1)C2
Reply | 40

Ask | Then this compound: COc1ccccc1-n1nc2c(c1-c1ccc(Cl)cc1)CN(S(=O)(=O)c1c(C)noc1C)C2
Reply | 31

Ask | Then this compound: CC(C)S(=O)(=O)N1Cc2nn(-c3ccccc3N(C)C)c(-c3ccc(Cl)cc3)c2C1
Reply | 26
